molecular target: hCA XII (Homo sapiens); construct: gene CA12; recombinant, made in-house; test: stopped-flow CO2 hydrase assay; format: biochemical; conditions: CO2 substrate; […] HEPES pH […] Na2SO4; […] min preincubation at room temperature
pKi: −log10 of the molar value.

{"Test smiles": "NS(=O)(=O)c1cc(C(=O)O)c(Cl)cc1Cl", "pKi": 8.12}

* * *

molecular target: hCA XII (Homo sapiens, UniProt O43570); construct: gene CA12; recombinant, made in-house; experiment: stopped-flow CO2 hydrase assay; format: biochemical
Sequence (O43570 25-354 limits assumed): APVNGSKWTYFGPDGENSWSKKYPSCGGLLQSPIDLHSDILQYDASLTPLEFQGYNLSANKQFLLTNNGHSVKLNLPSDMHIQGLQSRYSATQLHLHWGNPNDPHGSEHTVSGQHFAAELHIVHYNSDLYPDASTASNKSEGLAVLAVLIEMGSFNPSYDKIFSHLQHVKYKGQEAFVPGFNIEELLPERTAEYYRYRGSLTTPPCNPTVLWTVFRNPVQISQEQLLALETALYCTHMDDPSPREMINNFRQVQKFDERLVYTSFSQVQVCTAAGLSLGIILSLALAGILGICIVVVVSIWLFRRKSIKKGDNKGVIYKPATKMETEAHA
pKi: −log10 of the molar value.
Lab note: anything with pKi at or over 8 counts as 1 (yes); the rest go in 0 (no).

{"Test smiles": "NS(=O)(=O)c1cc(C(=O)N2CCN(S(=O)(=O)c3ccc(Cl)cc3)CC2)c(Cl)cc1Cl", "Qualitative label": "1 (yes)"}
{"Test smiles": "Cc1ccc(S(=O)(=O)N2CCN(C(=O)c3cc(S(N)(=O)=O)c(Cl)cc3Cl)CC2)cc1", "Qualitative label": "0 (no)"}
{"Test smiles": "Nc1cccc(S(=O)(=O)N2CCN(C(=O)c3cc(S(N)(=O)=O)c(Cl)cc3Cl)CC2)c1", "Qualitative label": "1 (yes)"}

Reference source: paper PMC11648825
